Test: chemical genetic growth profiling, strain panel (AID 1159580);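 note: tested at 20 µM; growth read once vehicle control cultures reached saturation at 30 °C; 1 = growth at the plate median or of vehicle wells; lower values mean less growth of the strain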
Settings: S. cerevisiae deletion strains, growth OD, locus YLR258W, strain gsy2, stronger effect = lower value
The campaign covered roughly 5,500 compounds. About 2,000 (36%) were called active. About 18% were inconclusive and are not listed. The list shows a part of the results.
Can you tell me normalized growth for the items I'm about to list?
One number for each entry.

| compound | normalized growth |
| --- | --- |
| Nc1nc2c(c(=O)[nH]1)N(C=O)C(CNc1ccc(C(=O)N[C@@H](CCC(=O)O)C(=O)O)cc1)CN2 (stereo partly specified) | 1.01 |

I'm hoping you can list normalized growth for every compound here, please.
1. CC(COc1ccccc1)N(CCCl)Cc1ccccc1 (stereo unspecified)
2. C#C[C@]1(O)CCC2C3CCc4cc(OC)ccc4C3CC[C@@]21C (stereo partly specified)

0.95
0.956
